Reported MTD values for the following molecules.
Assay: Clinically observable adverse effects of cationic alkyl moieties after subcutaneous bolus in rats (Table 1)
Assay type: in vivo, rat
Conditions: male, Sprague-Dawley, rat, in vivo, sc, tested at 3.0, 5.0 or 10 μmol/kg, lethargy is considered maximum tolerated bolus dose, read-out: Lethargy* in n = 3
Numbered stars: 1 amine (or outer) side, 2 acyl side, 3 side chain; on linkers, the order of the positions; unused ones are H or OH. Square brackets hold non-standard residues; d marks the D form. Peptide text beside a SMILES is read from it. * marks the point of attachment. C18 diacid = O=C(O)CCCCCCCCCCCCCCCCC(=O)*; γGlu = O=C(O)[C@H](CCC(=O)[*:2])N[*:1]; Palmitoyl = CCCCCCCCCCCCCCCC(=O)*; Dab = NCC[C@H](N)C(=O)O; Dap = NC[C@H](N)C(=O)O; AEEA = NCCOCCOCC(=O)O; GABA = NCCCC(=O)O
measurement.name: MTD

molecule	reported.result
CCCCCCCCCCCCCCCC(=O)NCCOCCOCC(=O)NCCOCCOCC(=O)N[C@@H](CCCCN)C(=O)N[C@@H](CCCCN)C(=O)O [SEQ ID NO: 5, CH3(CH2)14(C═O)-Aeea-Aeea-KK]	≥ 5 µmol/kg
NCC[C@H](NC(=O)[C@H](CCN)NC(=O)COCCOCCNC(=O)COCCOCCNC(=O)CCCCCCCCCCCCCCCCC(=O)O)C(=O)O [SEQ ID NO: 21, (HOOC)(CH2)16(C═O)-Aeea-Aeea-Dab-Dab] ({C18 diacid-AEEA-AEEA}-[Dab]-[Dab]-OH; C-terminus assumed)	> 10 µmol/kg
CCCCCCCCCCCCCCCC(=O)NCCCC(=O)NCCCC(=O)N[C@@H](CCN)C(=O)N[C@@H](CCN)C(=O)O [SEQ ID NO: 11, CH3(CH2)14(C═O)-γAbu-γAbu-Dab-Dab] ({Palmitoyl-GABA-GABA}-[Dab]-[Dab]-OH; C-terminus assumed)	> 10 µmol/kg
CCCCCCCCCCCCCCCC(=O)NCCOCCOCC(=O)NCCOCCOCC(=O)NCCOCCOCC(=O)N[C@@H](CCN)C(=O)N[C@@H](CCN)C(=O)N[C@@H](CCN)C(=O)N[C@@H](CCN)C(=O)O [SEQ ID NO: 8] ({Palmitoyl-AEEA-AEEA-AEEA}-[Dab][Dab][Dab][Dab]-OH; C-terminus assumed)	≥ 3 µmol/kg
CCCCCCCCCCCCCCCC(=O)NCCOCCOCC(=O)NCCOCCOCC(=O)NCCOCCOCC(=O)N[C@@H](CN)C(=O)N[C@@H](CN)C(=O)N[C@@H](CN)C(=O)N[C@@H](CN)C(=O)O [SEQ ID NO: 22] ({Palmitoyl-AEEA-AEEA-AEEA}-[Dap][Dap][Dap][Dap]-OH; C-terminus assumed)	> 10 µmol/kg
CCCCCCCCCCCCCCCC(=O)NCCOCCOCC(=O)NCCOCCOCC(=O)NCCOCCOCC(=O)N[C@@H](CN)C(=O)N[C@@H](CN)C(=O)N[C@@H](CN)C(=O)O [SEQ ID NO: 19] ({Palmitoyl-AEEA-AEEA-AEEA}-[Dap]-[Dap]-[Dap]-OH; C-terminus assumed)	> 10 µmol/kg
CCCCCCCCCCCCCCCC(=O)N[C@@H](CCC(=O)NCCOCCOCC(=O)NCCOCCOCC(=O)N[C@@H](CCN)C(=O)N[C@@H](CCN)C(=O)O)C(=O)O [SEQ ID NO: 15, CH3(CH2)14(C═O)-γE-Aeea-Aeea-Dab-Dab] ({Palmitoyl-γGlu-AEEA-AEEA}-[Dab]-[Dab]-OH; C-terminus assumed)	> 10 µmol/kg
